Molecular target: hGIPR (Homo sapiens)
Sequence (P48546 22-466): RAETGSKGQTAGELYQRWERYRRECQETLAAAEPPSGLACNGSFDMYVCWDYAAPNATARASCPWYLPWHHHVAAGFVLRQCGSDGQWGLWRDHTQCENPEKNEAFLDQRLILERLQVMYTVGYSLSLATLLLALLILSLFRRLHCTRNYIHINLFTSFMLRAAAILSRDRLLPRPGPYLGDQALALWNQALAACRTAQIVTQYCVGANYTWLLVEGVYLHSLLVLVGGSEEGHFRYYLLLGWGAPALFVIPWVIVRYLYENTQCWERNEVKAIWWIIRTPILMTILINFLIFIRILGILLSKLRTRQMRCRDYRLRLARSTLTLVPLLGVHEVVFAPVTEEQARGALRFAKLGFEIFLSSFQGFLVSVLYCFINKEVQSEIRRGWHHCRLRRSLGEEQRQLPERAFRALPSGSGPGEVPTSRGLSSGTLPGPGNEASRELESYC
Assay: Functional cAMP activity in the presence of 1% HSA
Format: cell-based
Starred links: 1 amine or outer side, 2 acyl side, 3 side chain; linkers in the order of their positions; H or OH if unused. Non-standard residues stand in square brackets, D forms with d. Groups on a side chain read outwards from the residue. *: point of attachment. C20 diacid = O=C(O)CCCCCCCCCCCCCCCCCCC(=O)*; C18 diacid = O=C(O)CCCCCCCCCCCCCCCCC(=O)*; γGlu = O=C(O)[C@H](CCC(=O)[*:2])N[*:1]; αMe4Pal = C[C@](N)(Cc1ccncc1)C(=O)O; αMeL = CC(C)C[C@](C)(N)C(=O)O; Orn = NCCC[C@H](N)C(=O)O; AEEA = NCCOCCOCC(=O)O; Aib = CC(C)(N)C(=O)O
Just a reminder that ties go to criterion not met: only EC50 strictly below 30 nM counts as criterion met.

Previously resolved entries follow.
1) H-Y[Aib]QGTFTSDFSK[αMeL]LDKK([AEEA-γGlu-C20 diacid])AQQAFIEYLLA[Aib]GPSSGAPPPSEG-NH2 [Example 30] | criterion not met
2) H-Y[Aib]QGTFTSDFSQ[αMeL]LDKK([AEEA-γGlu-C18 diacid])AQ[αMe4Pal]AFIEYLIE[Aib]GESSGAPPPSGE-NH2 [Example 233] | criterion met
3) H-Y[Aib]QGTFTSDFSK[αMeL]LDKK([AEEA-γGlu-C20 diacid])AQ[Aib]AFIEYLLE[Aib]GPSSGAPPPSSG-NH2 [Example 44] | criterion not met
4) H-Y[Aib]QGTFTSDFSR[αMeL]LDKK([AEEA-AEEA-γGlu-C18 diacid])AQ[Aib]AFIEYLLE[Aib]GPSSGAPPPSGS-NH2 [Example 80] | criterion met

Problem: Dear reviewer, please state whether H-Y[Aib]QGTFTSDFS[Orn][αMeL]LDKK([AEEA-AEEA-γGlu-C20 diacid])AQ[Aib]AFIEYLLE[Aib]GPSSGAPPPGEG-NH2 [Example 70] has EC50 strictly beneath 30 nM.
Result: criterion met
